# test method notes: self-splicing fitness, log relative to wild type (ln ratio); higher = more splicing; Tetrahymena group I intron in knt gene, E. coli kanamycin selection, DiMSum; sequences stand for … in CUCUCU…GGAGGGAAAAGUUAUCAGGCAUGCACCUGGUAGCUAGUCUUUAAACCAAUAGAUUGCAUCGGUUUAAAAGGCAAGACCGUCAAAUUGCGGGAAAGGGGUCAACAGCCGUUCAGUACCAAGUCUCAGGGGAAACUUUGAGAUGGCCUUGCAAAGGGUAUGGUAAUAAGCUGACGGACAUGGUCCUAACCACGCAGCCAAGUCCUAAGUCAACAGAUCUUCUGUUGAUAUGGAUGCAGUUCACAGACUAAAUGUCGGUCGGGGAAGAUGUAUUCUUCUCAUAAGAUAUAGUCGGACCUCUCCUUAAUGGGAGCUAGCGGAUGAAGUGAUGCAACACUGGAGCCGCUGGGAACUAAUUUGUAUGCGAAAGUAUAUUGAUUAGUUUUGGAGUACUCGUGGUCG;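 further: selection with 25 µg/mL kanamycin versus none on LB agar overnight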
# condition label: 30 °C
Answer No if self-splicing fitness (ln) is under -3, and Yes if it is -3 or more.

UACUAGCAAUAUUACGCUCG	Yes
UCUGAGCAAUAUUACGAGAC	Yes
GUGGAGCAAUAUUACGUUAA	Yes
AUGAAGCAAUAUUACGAUUA	Yes
UUCAAGCAAUAUUACGACGU	Yes
AACAAGCAAUAUUACGGUAG	No
UUCAAGCAAUAUUACGGGCG	Yes
GUAGAGCAAUAUUACGUCAC	Yes
CUGAAGCAAUAUUACGACGC	No
ACCUAGCAAUAUUACGGUUG	No
GUAAAGCAAUAUUACGUGAG	Yes
UCACAGCAAUAUUACGAGCA	Yes
GUAUAGCAAUAUUACGGACG	Yes
GCGGAGCAAUAUUACGGAUC	Yes
CAUCAGCAAUAUUACGGUUC	Yes
UAUAAGCAAUAUUACGUAAC	No
CUGUAGCAAUAUUACGACCG	Yes
UGCCAGCAAUAUUACGCGAG	No
